Each recorded value in this set is attributed to patent US20240181136A1.

# PROCEDURE_TEXT: Visual assessment of thioglycolipid aggregation and hydrogel formation
# Format: physicochemical
# REPORTED_CONDITIONS: thioglycolipid concentration 0.05 wt %, room temperature
ASSAY_METRIC: Visual assessment of aggregation and gelation

See these solved cases before continuing.
CCCCCCCCCCS[C@@H]1O[C@H](CO)[C@@H](O[C@@H]2O[C@H](CO)[C@H](O)[C@H](O)[C@H]2O)[C@H](O)[C@H]1O = G + C
CCCCCCCCCCS[C@@H]1O[C@H](CO)[C@@H](O[C@@H]2O[C@H](CO)[C@@H](O)[C@H](O)[C@H]2O)[C@H](O)[C@H]1O = F
CCCCCCCCCCCCS[C@@H]1O[C@H](CO)[C@@H](O[C@@H]2O[C@H](CO)[C@H](O)[C@H](O)[C@H]2O)[C@H](O)[C@H]1O = O
CCCCCCCCS[C@@H]1O[C@H](CO)[C@@H](O[C@@H]2O[C@H](CO)[C@H](O)[C@H](O)[C@H]2O)[C@H](O)[C@H]1O = C

Prompt: Fill in: Visual assessment of aggregation and gelation of CCCCCCCCCCCCS[C@@H]1O[C@H](CO)[C@@H](O[C@@H]2O[C@H](CO)[C@@H](O)[C@H](O)[C@H]2O)[C@H](O)[C@H]1O is ___
Response: F

Prompt: CCCCCCCCS[C@@H]1O[C@H](CO)[C@@H](O[C@@H]2O[C@H](CO)[C@@H](O)[C@H](O)[C@H]2O)[C@H](O)[C@H]1O , same question.
Response: C

* * *

# PROCEDURE_TEXT: Visual assessment of thioglycolipid aggregation and hydrogel formation
# Type: physicochemical
# REPORTED_CONDITIONS: thioglycolipid concentration 0.5 wt %, room temperature
# Method: Preparation of Thioglycolipid Solutions and Hydrogel Fabrication. Aqueous solutions of thioglycolipids were prepared by weighing 2-3 mg of thioglycolipids and adding an appropriate volume of water to make solution samples at desired concentrations in vials. […] Visual Assessment of Thioglycolipid Hydrogel Formation. A wide range of thioglycolipid solutions were evaluated to establish concentration conditions (wt %) under which hydrogelation occurs and to assess the formation of other phases. […]
ASSAY_METRIC: Visual assessment of aggregation and gelation

CCCCCCCCCCS[C@@H]1O[C@H](CO)[C@@H](O[C@@H]2O[C@H](CO)[C@H](O)[C@H](O)[C@H]2O)[C@H](O)[C@H]1O = G + C
CCCCCCCCS[C@@H]1O[C@H](CO)[C@@H](O[C@@H]2O[C@H](CO)[C@H](O)[C@H](O)[C@H]2O)[C@H](O)[C@H]1O = G + C
CCCCCCCCS[C@@H]1O[C@H](CO)[C@@H](O[C@@H]2O[C@H](CO)[C@@H](O)[C@H](O)[C@H]2O)[C@H](O)[C@H]1O = C
CCCCCCCCCCS[C@@H]1O[C@H](CO)[C@@H](O[C@@H]2O[C@H](CO)[C@@H](O)[C@H](O)[C@H]2O)[C@H](O)[C@H]1O = G or F

Prompt: Fill in: Visual assessment of aggregation and gelation of CCCCCCCCCCCCS[C@@H]1O[C@H](CO)[C@@H](O[C@@H]2O[C@H](CO)[C@H](O)[C@H](O)[C@H]2O)[C@H](O)[C@H]1O is ___
Response: G + C

Prompt: CCCCCCCCCCCCS[C@@H]1O[C@H](CO)[C@@H](O[C@@H]2O[C@H](CO)[C@@H](O)[C@H](O)[C@H]2O)[C@H](O)[C@H]1O , same question.
Response: G or F
